Cited source: ChEMBL document CHEMBL5291721

# AC50 per record follows
# tested_on: D(1A) dopamine receptor (Homo sapiens, UniProt P21728)
# Sequence (P21728 whole entry): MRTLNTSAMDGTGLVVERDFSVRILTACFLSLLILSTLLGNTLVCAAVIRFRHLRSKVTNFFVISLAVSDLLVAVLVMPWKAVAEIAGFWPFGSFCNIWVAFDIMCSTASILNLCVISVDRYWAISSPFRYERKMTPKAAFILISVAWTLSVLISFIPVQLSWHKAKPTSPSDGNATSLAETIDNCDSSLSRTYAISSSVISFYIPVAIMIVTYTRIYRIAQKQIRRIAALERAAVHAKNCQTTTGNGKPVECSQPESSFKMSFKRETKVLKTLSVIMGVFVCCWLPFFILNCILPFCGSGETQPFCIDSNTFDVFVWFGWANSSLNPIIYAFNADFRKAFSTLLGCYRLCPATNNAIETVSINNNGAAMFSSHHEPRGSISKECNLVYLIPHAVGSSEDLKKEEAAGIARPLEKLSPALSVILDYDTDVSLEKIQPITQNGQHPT
# Type: functional, cell-based

[
  {
    "compound": "C=CC[C@@H]1/C=C(\\C)C[C@H](C)C[C@H](OC)[C@H]2O[C@@](O)(C(=O)C(=O)N3CCCC[C@H]3C(=O)O[C@H](/C(C)=C/[C@@H]3CC[C@@H](O)[C@H](OC)C3)[C@H](C)[C@@H](O)CC1=O)[C@H](C)C[C@@H]2OC [TACROLIMUS ANHYDROUS]",
    "AC50": "> 30 µM"
  },
  {
    "compound": "Cc1cc(C(C)(C)C)cc(C)c1CC1=NCCN1",
    "AC50": "> 30 µM"
  },
  {
    "compound": "C[C@H](CCC(=O)O)[C@H]1CC[C@H]2[C@@H]3[C@@H](O)C[C@@H]4C[C@H](O)CC[C@]4(C)[C@H]3CC[C@]12C",
    "AC50": "> 30 µM"
  },
  {
    "compound": "CCN1CCN(Cc2ccc(Nc3ncc(F)c(-c4cc(F)c5nc(C)n(C(C)C)c5c4)n3)nc2)CC1",
    "AC50": "> 30 µM"
  },
  {
    "compound": "COc1cc2nccc(Oc3ccc(NC(=O)C4(C(=O)Nc5ccc(F)cc5)CC4)cc3)c2cc1OC [CABOZANTINIB]",
    "AC50": "13 µM"
  },
  {
    "compound": "C[C@@H](Oc1cc(-c2cnn(C3CCNCC3)c2)cnc1N)c1c(Cl)ccc(F)c1Cl",
    "AC50": "> 30 µM"
  }
]

====

The following compounds are shown together with reported AC50 values.
# tested_on: Adenosine receptor A2a (Homo sapiens, UniProt P29274)
# Sequence (P29274 whole entry): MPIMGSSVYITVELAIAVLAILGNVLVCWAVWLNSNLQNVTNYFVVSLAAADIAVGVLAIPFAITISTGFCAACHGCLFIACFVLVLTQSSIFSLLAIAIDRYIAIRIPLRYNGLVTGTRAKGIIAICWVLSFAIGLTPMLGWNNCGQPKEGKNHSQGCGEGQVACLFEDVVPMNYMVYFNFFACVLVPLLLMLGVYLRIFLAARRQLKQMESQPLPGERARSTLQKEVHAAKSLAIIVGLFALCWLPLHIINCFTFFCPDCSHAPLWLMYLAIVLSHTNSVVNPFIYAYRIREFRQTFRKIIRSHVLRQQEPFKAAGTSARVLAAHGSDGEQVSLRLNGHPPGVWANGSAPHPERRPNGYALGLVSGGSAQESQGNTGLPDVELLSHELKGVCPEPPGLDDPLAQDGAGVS
endpoint: AC50

[
  {
    "compound": "CC1(C)S[C@@H]2[C@H](NC(=O)[C@H](N)c3ccccc3)C(=O)N2[C@H]1C(=O)OCOC(=O)[C@@H]1N2C(=O)C[C@H]2S(=O)(=O)C1(C)C",
    "endpoint": "AC50",
    "reported_value": "> 30 µM"
  },
  {
    "compound": "C#CCOc1ccc(N)cc1C(=O)NCCCC [PARSALMIDE]",
    "endpoint": "AC50",
    "reported_value": "> 30 µM"
  },
  {
    "compound": "CCC(=O)O[C@H]1CC[C@H]2[C@@H]3CCC4=CC(=O)CC[C@]4(C)[C@H]3CC[C@]12C [TESTOSTERONE PROPIONATE]",
    "endpoint": "AC50",
    "reported_value": "> 10 µM"
  },
  {
    "compound": "CCCC(CCC)C(N)=O [VALPROMIDE]",
    "endpoint": "AC50",
    "reported_value": "> 30 µM"
  },
  {
    "compound": "CC(=O)N[C@@H](CS)C(=O)O",
    "endpoint": "AC50",
    "reported_value": "> 30 µM"
  },
  {
    "compound": "CC(=O)O[C@]1(C(C)=O)CC[C@H]2[C@@H]3C=C(C)C4=CC(=O)CC[C@@H]4[C@H]3CC[C@@]21C [NOMEGESTROL ACETATE]",
    "endpoint": "AC50",
    "reported_value": "> 30 µM"
  },
  {
    "compound": "Cc1noc(NS(=O)(=O)c2ccc(N)cc2)c1C",
    "endpoint": "AC50",
    "reported_value": "> 10 µM"
  },
  {
    "compound": "CCCCC(=O)O[C@]1(C(=O)CO)[C@@H](C)C[C@H]2[C@@H]3CCC4=CC(=O)C=C[C@]4(C)[C@@]3(F)[C@@H](O)C[C@@]21C [BETAMETHASONE VALERATE]",
    "endpoint": "AC50",
    "reported_value": "> 30 µM"
  },
  {
    "compound": "CN1CCN(C2=Nc3ccccc3Oc3ccc(Cl)cc32)CC1",
    "endpoint": "AC50",
    "reported_value": "> 30 µM"
  },
  {
    "compound": "COc1ccccc1OCCNCC(O)COc1cccc2[nH]c3ccccc3c12 (centres undefined)",
    "endpoint": "AC50",
    "reported_value": "> 30 µM"
  },
  {
    "compound": "[H]/N=C(/N)N/C(=N/[H])NCCc1ccccc1",
    "endpoint": "AC50",
    "reported_value": "> 30 µM"
  },
  {
    "compound": "CCN(CC)C(=O)Nc1ccc(OCC(O)CNC(C)(C)C)c(C(C)=O)c1 (centres undefined)",
    "endpoint": "AC50",
    "reported_value": "> 30 µM"
  },
  {
    "compound": "Nc1ccc(S(=O)(=O)Nc2nccs2)cc1",
    "endpoint": "AC50",
    "reported_value": "> 30 µM"
  },
  {
    "compound": "COc1ccccc1Oc1c(NS(=O)(=O)c2ccc(C(C)(C)C)cc2)nc(-c2ncccn2)nc1OCCO",
    "endpoint": "AC50",
    "reported_value": "> 30 µM"
  },
  {
    "compound": "CCOC(=O)C1=C(C)NC(C)=C(C(=O)OC)C1c1cccc([N+](=O)[O-])c1 (centres undefined)",
    "endpoint": "AC50",
    "reported_value": "> 30 µM"
  },
  {
    "compound": "CCC1(c2ccccc2)CCC(=O)NC1=O (centres undefined) [GLUTETHIMIDE]",
    "endpoint": "AC50",
    "reported_value": "> 10 µM"
  },
  {
    "compound": "NC(=O)CN1CCCC1=O",
    "endpoint": "AC50",
    "reported_value": "> 30 µM"
  },
  {
    "compound": "CNC1=Nc2ccc(Cl)cc2C(c2ccccc2)=[N+]([O-])C1 [CHLORDIAZEPOXIDE]",
    "endpoint": "AC50",
    "reported_value": "> 30 µM"
  },
  {
    "compound": "O=C(O)CCNC(=O)c1ccccc1",
    "endpoint": "AC50",
    "reported_value": "> 30 µM"
  }
]

====

A set of molecules tested on 5-hydroxytryptamine receptor 1A (Homo sapiens, UniProt P08908), with measured AC50:
endpoint: AC50

[
  {
    "molecule": "Nc1c2ccccc2nc2ccccc12",
    "reported_value": "> 30 µM"
  },
  {
    "molecule": "CCN(CC)C(=S)S",
    "reported_value": "> 30 µM"
  },
  {
    "molecule": "Cc1cc(NC(=O)C2=C(O)c3ccccc3S(=O)(=O)N2C)no1",
    "reported_value": "> 30 µM"
  },
  {
    "molecule": "C[C@H](Cc1cc2c(c(C(N)=O)c1)N(CCCO)CC2)NCCOc1ccccc1OCC(F)(F)F",
    "reported_value": "0.003 µM"
  },
  {
    "molecule": "CC(=O)O[C@]1(C(C)=O)CC[C@H]2[C@@H]3C=C(Cl)C4=CC(=O)CC[C@]4(C)[C@H]3CC[C@@]21C [CHLORMADINONE ACETATE]",
    "reported_value": "> 30 µM"
  },
  {
    "molecule": "O=C(O)COc1ccc(C(=O)c2cccs2)c(Cl)c1Cl",
    "reported_value": "> 30 µM"
  },
  {
    "molecule": "C[C@]1(Cn2ccnn2)[C@H](C(=O)O)N2C(=O)C[C@H]2S1(=O)=O",
    "reported_value": "> 30 µM"
  },
  {
    "molecule": "O=C(O)CO",
    "reported_value": "> 30 µM"
  },
  {
    "molecule": "COc1cc2nccc(Oc3ccc(NC(=O)C4(C(=O)Nc5ccc(F)cc5)CC4)cc3)c2cc1OC [CABOZANTINIB]",
    "reported_value": "> 30 µM"
  },
  {
    "molecule": "COc1cc(N2CCC(N3CCN(C)CC3)CC2)ccc1Nc1ncc(Cl)c(Nc2ccccc2P(C)(C)=O)n1",
    "reported_value": "> 30 µM"
  },
  {
    "molecule": "OC[C@H]1O[C@@H](c2ccc(Cl)c(Cc3ccc(O[C@H]4CCOC4)cc3)c2)[C@H](O)[C@@H](O)[C@@H]1O",
    "reported_value": "> 30 µM"
  },
  {
    "molecule": "COc1cc2c(cc1OC)CC(=O)N(CCCN(C)C[C@H]1Cc3cc(OC)c(OC)cc31)CC2",
    "reported_value": "5.81 µM"
  },
  {
    "molecule": "O=C1/C(=C2\\Nc3ccc(S(=O)(=O)O)cc3C2=O)Nc2ccc(S(=O)(=O)O)cc21 [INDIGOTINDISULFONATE]",
    "reported_value": "> 30 µM"
  },
  {
    "molecule": "Cc1onc(-c2ccccc2)c1-c1ccc(S(N)(=O)=O)cc1",
    "reported_value": "> 30 µM"
  },
  {
    "molecule": "C=CCSCC1Nc2cc(Cl)c(S(N)(=O)=O)cc2S(=O)(=O)N1 (stereo not given) [ALTHIAZIDE]",
    "reported_value": "> 30 µM"
  },
  {
    "molecule": "CCN(CCCc1ccccc1)CCCc1ccccc1",
    "reported_value": "0.029 µM"
  },
  {
    "molecule": "Cc1ccccc1C(=O)Nc1ccc(C(=O)N2CCCC(N(C)C)c3ccccc32)cc1 (stereo not given)",
    "reported_value": "5.8 µM"
  },
  {
    "molecule": "CN(C)[C@@H]1C(O)=C(C(N)=O)C(=O)[C@@]2(O)C(O)=C3C(=O)c4c(O)ccc(Cl)c4[C@@](C)(O)[C@H]3C[C@@H]12",
    "reported_value": "> 30 µM"
  },
  {
    "molecule": "CCCc1nc(C(C)(C)O)c(C(=O)O)n1Cc1ccc(-c2ccccc2-c2nnn[nH]2)cc1",
    "reported_value": "> 30 µM"
  },
  {
    "molecule": "C=CCN1CC[C@]23CCCC[C@H]2[C@H]1Cc1ccc(O)cc13",
    "reported_value": "27.6 µM"
  },
  {
    "molecule": "C[C@@H]1C[C@H]2[C@@H]3CCC4=CC(=O)C=C[C@]4(C)[C@@]3(Cl)[C@@H](O)C[C@]2(C)[C@@]1(OC(=O)c1ccco1)C(=O)CCl [MOMETASONE FUROATE]",
    "reported_value": "> 30 µM"
  },
  {
    "molecule": "CC[C@H](c1ccc(O)cc1)[C@@H](CC)c1ccc(O)cc1",
    "reported_value": "> 30 µM"
  },
  {
    "molecule": "CC1=CCC(C(C)(C)O)CC1O (stereo not given)",
    "reported_value": "> 30 µM"
  },
  {
    "molecule": "N[C@@H](CO)C(=O)O",
    "reported_value": "> 30 µM"
  },
  {
    "molecule": "CN1CCN(C2=Nc3ccccc3Oc3ccc(Cl)cc32)CC1",
    "reported_value": "3.95 µM"
  },
  {
    "molecule": "CN1C(=O)/C(=N\\NC(N)=S)c2ccccc21",
    "reported_value": "> 30 µM"
  },
  {
    "molecule": "C=C1CC[C@H](O)C/C1=C/C=C1\\CCC[C@]2(C)[C@@H]([C@H](C)/C=C/[C@H](C)C(C)C)CC[C@@H]12",
    "reported_value": "> 30 µM"
  },
  {
    "molecule": "CN1C(C(=O)Nc2ccccn2)=C(O)c2ccccc2S1(=O)=O",
    "reported_value": "> 30 µM"
  },
  {
    "molecule": "CCc1nc(C(N)=O)c(Nc2ccc(N3CCC(N4CCN(C)CC4)CC3)c(OC)c2)nc1NC1CCOCC1",
    "reported_value": "> 30 µM"
  },
  {
    "molecule": "CNC(=O)Oc1cccc2ccccc12",
    "reported_value": "> 30 µM"
  },
  {
    "molecule": "c1ccc2c(c1)CCc1ccccc1N2C1CN2CCC1CC2 (stereo not given)",
    "reported_value": "23.3 µM"
  },
  {
    "molecule": "Cc1cc(N)c2ccccc2[n+]1CCCCCCCCCC[n+]1c(C)cc(N)c2ccccc21",
    "reported_value": "2.53 µM"
  },
  {
    "molecule": "CCCN(CCC)C(=O)Cc1c(-c2ccc(Cl)cc2)nc2ccc(Cl)cn12",
    "reported_value": "> 30 µM"
  },
  {
    "molecule": "C#C[C@]1(O)CC[C@H]2[C@@H]3CCC4=CC(=O)CC[C@@H]4[C@H]3C(=C)C[C@@]21CC",
    "reported_value": "> 30 µM"
  },
  {
    "molecule": "CC(C)(C)NC[C@H](O)COc1cccc2c1CCCC2=O",
    "reported_value": "0.886 µM"
  }
]
